# assayed_target: βARR1 C251A (Rattus norvegicus, UniProt P29066, C251A)
# Construct: βARR1 or βARR2 construct, with their C terminus truncated (at amino acid 393 or 394, respectively); GST (pGEX4T1) (N, cleaved yes)
# Sequence (P29066 1-393 C251A): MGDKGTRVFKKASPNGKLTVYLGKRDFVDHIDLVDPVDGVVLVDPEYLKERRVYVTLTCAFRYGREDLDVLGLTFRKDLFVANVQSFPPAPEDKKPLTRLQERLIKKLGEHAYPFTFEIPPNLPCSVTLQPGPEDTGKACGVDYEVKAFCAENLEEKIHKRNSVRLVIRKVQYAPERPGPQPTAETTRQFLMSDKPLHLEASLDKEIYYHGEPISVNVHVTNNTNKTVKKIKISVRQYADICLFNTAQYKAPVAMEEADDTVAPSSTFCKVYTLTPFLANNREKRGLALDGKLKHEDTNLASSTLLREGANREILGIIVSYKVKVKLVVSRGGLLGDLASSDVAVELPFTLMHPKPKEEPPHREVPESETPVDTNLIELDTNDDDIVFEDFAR
# protocol_notes: ITC binding to βARR1 mutant C251A
# measurement_conditions: 25 °C
measure: Kd

The molecule identified as C=C1C(=O)[C@]23[C@H](O)[C@H]1CC[C@H]2[C@@]12CO[C@]3(O)[C@@H](O)[C@@H]1C(C)(C)CC[C@@H]2O [Cmpd-5] registered its Kd at 3 µM

----------
# assayed_target: βARR2 (Rattus norvegicus)
# Construct: βARR1 or βARR2 construct, with their C terminus truncated (at amino acid 393 or 394, respectively); GST (pGEX4T1) (N, cleaved yes)
# Sequence (P29067 1-394): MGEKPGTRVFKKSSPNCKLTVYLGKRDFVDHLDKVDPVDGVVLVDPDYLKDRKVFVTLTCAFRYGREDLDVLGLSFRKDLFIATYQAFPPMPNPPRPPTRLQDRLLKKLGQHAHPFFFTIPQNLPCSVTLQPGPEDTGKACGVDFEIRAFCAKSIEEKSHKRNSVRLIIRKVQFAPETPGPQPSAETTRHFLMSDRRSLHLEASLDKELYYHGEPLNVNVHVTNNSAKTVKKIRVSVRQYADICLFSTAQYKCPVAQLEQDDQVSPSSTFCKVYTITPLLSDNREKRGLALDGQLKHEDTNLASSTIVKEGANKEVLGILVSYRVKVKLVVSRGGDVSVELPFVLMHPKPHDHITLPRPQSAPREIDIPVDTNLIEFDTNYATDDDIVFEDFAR
# protocol_notes: ITC binding to βARR2
# measurement_conditions: ITC, 25 °C, one-site model
Exercise: state measured Kd for each of the compounds provided.
Give bare numbers, in nM.

compound: C=C1C(=O)[C@]23[C@H](O)[C@H]1CC[C@H]2[C@@]12CO[C@]3(O)[C@@H](O)[C@@H]1C(C)(C)CC[C@@H]2O
Kd [nM]: 563
//
compound: C=C1C(=O)OC2CC3(C)OC3CCC(C)=CC(OC(C)=O)C12 (stereo not drawn)
Kd [nM]: 207

Read the next record carefully.
The compound identified as C=C1C(=O)C2=CC1CCC(=O)C1(C)CCC(OCC)C(C)(C)C1CC2O (stereo not drawn) registered its Kd at 753

----------
# assayed_target: βARR1 K138A (Rattus norvegicus, UniProt P29066, K138A)
# Construct: βARR1 or βARR2 construct, with their C terminus truncated (at amino acid 393 or 394, respectively); GST (pGEX4T1) (N, cleaved yes)
# Sequence (P29066 1-393 K138A): as the sequence (P29066 1-393 C251A) above, with K138A, A251C counted along it
# protocol_notes: ITC binding to βARR1 mutant K138A
# measurement_conditions: 25 °C
measure: pKd
Numbers only, as −log10 of the molar value.

Reading of pKd for C=C1C(=O)[C@]23[C@H](O)[C@H]1CC[C@H]2[C@@]12CO[C@]3(O)[C@@H](O)[C@@H]1C(C)(C)CC[C@@H]2O [Cmpd-5] with βARR1 K138A (Rattus norvegicus, UniProt P29066, K138A): 6.00

----------
# assayed_target: βARR1 L129G (Rattus norvegicus, UniProt P29066, L129G)
# Construct: βARR1 or βARR2 construct, with their C terminus truncated (at amino acid 393 or 394, respectively); GST (pGEX4T1) (N, cleaved yes)
# Sequence (P29066 1-393 L129G): as the sequence (P29066 1-393 C251A) above, with L129G, A251C counted along it
# protocol_notes: ITC binding to βARR1 mutant L129G
# measurement_conditions: 25 °C
measure: pKd
Numbers only, as −log10 of the molar value.

Reading of pKd for C=C1C(=O)[C@]23[C@H](O)[C@H]1CC[C@H]2[C@@]12CO[C@]3(O)[C@@H](O)[C@@H]1C(C)(C)CC[C@@H]2O with βARR1 L129G (Rattus norvegicus, UniProt P29066, L129G): 5.70

----------
Exercise: state measured Kd for each of the compounds provided.
# assayed_target: βARR1 (Rattus norvegicus)
# Construct: βARR1 or βARR2 construct, with their C terminus truncated (at amino acid 393 or 394, respectively); GST (pGEX4T1) (N, cleaved yes)
# Sequence (P29066 1-393): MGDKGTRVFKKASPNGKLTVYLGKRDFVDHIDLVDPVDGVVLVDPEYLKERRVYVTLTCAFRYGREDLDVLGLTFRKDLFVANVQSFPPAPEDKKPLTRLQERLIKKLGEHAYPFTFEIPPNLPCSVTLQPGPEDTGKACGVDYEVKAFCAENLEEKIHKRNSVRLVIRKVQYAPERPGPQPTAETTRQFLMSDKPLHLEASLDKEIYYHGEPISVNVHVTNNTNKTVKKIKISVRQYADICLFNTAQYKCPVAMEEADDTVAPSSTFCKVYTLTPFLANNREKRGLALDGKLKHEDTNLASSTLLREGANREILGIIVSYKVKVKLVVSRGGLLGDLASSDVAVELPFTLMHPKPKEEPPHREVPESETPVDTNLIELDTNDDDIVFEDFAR
# protocol_notes: ITC binding to βARR1
# measurement_conditions: 25 °C, one-site model
Numbers only, in nM.

compound: C=C1C(=O)C2=CC1CCC(=O)C1(C)CCC(OCC)C(C)(C)C1CC2O (centres unmarked)
assayed_target: βARR1 (Rattus norvegicus)
value_observed: 1340

Read the next record carefully.
The compound identified as C=C1C(=O)OC2CC3(C)OC3CCC(C)=CC(OC(C)=O)C12 (centres unmarked) registered its Kd at 1420
